Every entry's value here was drawn from patent US20060069132A1.

- System: morningglory
- ASSAY_INFO: Test A pre-/postemergence herbicide test
- Type: in vivo, Ipomoea spp.
- ASSAY_SETUP: Preemergence, 500 g ai/ha; visual rating, 0 to 100 scale (0 no effect, 100 complete control)
Exercise: state measured Morningglory plant response rating for each of the molecules provided.
Answer with the value's number alone.

Reported Morningglory plant response rating ( C#CCNC(=O)c1cccc(NC(=O)c2cc(C(C)(C)C)nn2CC)n1 [Compound 147] ) = 20

Reported Morningglory plant response rating ( CCNC(=O)c1cccc(NC(=O)c2cc(C(C)(C)C)nn2CC)n1 [Compound 144] ) = 20

Reported Morningglory plant response rating ( C=Cn1nc(C(C)(C)C)cc1C(=O)Nc1cccc(C(=O)N(CC)CC)c1 [Compound 34] ) = 35

Reported Morningglory plant response rating ( CCn1nc(C(C)(C)C)cc1C(=O)Nc1cc(C(=O)NC(C)(C)C)ccn1 [Compound 154] ) = 10

Reported Morningglory plant response rating ( CCN(CC)C(=O)c1cccc(NC(=O)c2cc(C(C)(C)C)nn2CCF)c1 [Compound 36] ) = 20

Reported Morningglory plant response rating ( CC(=O)c1cccc(NC(=O)c2cc(C(C)(C)C)nn2CCF)c1 [Compound 128] ) = 45

Reported Morningglory plant response rating ( CCOC(=O)c1cc(NC(=O)c2cc(C(C)(C)C)nn2CC)ccc1F [Compound 89] ) = 0

Reported Morningglory plant response rating ( CCn1nc(C(C)(C)C)cc1C(=O)Nc1cc(C(=O)OC(C)(C)C)ccc1F [Compound 71] ) = 0

Reported Morningglory plant response rating ( CCOc1cccc(NC(=O)c2cc(C(C)(C)C)nn2CC)c1 [Compound 136] ) = 20

* * *

- Test system: cocklebur
- ASSAY_INFO: Test C pre-/postemergence herbicide test
- Format: in vivo, Xanthium strumarium
- ASSAY_SETUP: postemergence; 62 g ai/ha; scale 0 to 100
Exercise: state measured Plant response rating, Cocklebur for each of the compounds provided.
Answer with the value's number alone.

Reported Plant response rating, Cocklebur ( `C=CCNC(=O)c1cccc(NC(=O)c2cc(C(C)(C)C)nn2C)n1` ) = 0

Reported Plant response rating, Cocklebur ( `C=Cn1nc(C(C)(C)C)cc1C(=O)Nc1cccc(C(=O)N(CC)CC)c1` ) = 20

Reported Plant response rating, Cocklebur ( `C#CCNC(=O)c1cccc(NC(=O)c2cc(C(C)(C)C)nn2CC)n1` ) = 0

Reported Plant response rating, Cocklebur ( `CCNC(=O)c1cccc(NC(=O)c2cc(C(C)(C)C)nn2CCF)c1` ) = 60

Reported Plant response rating, Cocklebur ( `CCn1nc(C(C)(C)C)cc1C(=O)Nc1cccc(C(=O)NC2CC2)c1` ) = 50

* * *

- Tested on: pigweed
- ASSAY_INFO: Test B pre-/postemergence herbicide test
- Format: in vivo, Amaranthus retroflexus
- ASSAY_SETUP: postemergence, 500 g ai/ha; scale 0 to 100, 0 is no effect, 100 is complete control
- Procedure: […] At the same time, plants selected from these crop and weed species and also blackgrass (Alopecurus myosuroides Huds.), wheat (Triticum aestivum L.) and wild oat (Avena fatua L.) were treated with postemergence applications of test chemicals formulated in the same manner. […] Treated plants and controls were maintained in a greenhouse for 13 to 15 days, after which time all species were compared to controls and visually evaluated. […]
Rule: Pigweed plant response rating of 40 or more gives T; anything lower gives F.

stdin: Say whether `CCNC(=O)c1cc(NC(=O)c2cc(C(C)(C)C)nn2CC)c(F)cc1F` shows Pigweed plant response rating of 40 or more.
stdout: F

stdin: Say whether `C#CCNC(=O)c1cc(NC(=O)c2cc(C(C)(C)C)nn2CC)ccn1` shows Pigweed plant response rating of 40 or more.
stdout: F

stdin: Say whether CCNC(=O)c1ccc(F)c(NC(=O)C2CC(C(C)(C)C)=NN2CC)c1 (racemic) shows Pigweed plant response rating of 40 or more.
stdout: T

stdin: Say whether `CCSCNC(=O)c1cccc(NC(=O)c2cc(C(C)(C)C)nn2CC)c1` shows Pigweed plant response rating of 40 or more.
stdout: T
